Tested on: Trichophyton mentagrophytes
Method: Antifungal activity against Trichophyton mentagrophytes after 96 hrs by broth micro-dilution method
Type: functional
Recorded endpoint: IC50 (µg/mL)
The figure you give is taken to be in µg/mL; do not add the unit.

1. C[C@@H]1[C@H](O)[C@@H](C)/C=C/C=C/C=C/C=C/C=C/C=C/C=C/[C@H](O[C@@H]2O[C@H](C)[C@@H](O)[C@H](N)[C@@H]2O)C[C@@H]2O[C@](O)(C[C@@H](O)C[C@@H](O)[C@H](O)CC[C@@H](O)C[C@@H](O)CC(=O)O[C@H]1C)C[C@H](O)[C@H]2C(=O)O [AMPHOTERICIN B] = 3.9
2. CN[C@H]1C[C@@H](N)[C@H](O)[C@@H](O[C@@H]2O[C@H](CO)[C@H](O)[C@@H]3O[C@@]4(O[C@H]23)O[C@H]([C@@H](N)CO)[C@H](O)[C@H](O)[C@H]4O)[C@@H]1O = 1

--- query ---
Record request: IC50 value, item NC[C@H]1O[C@H](O[C@H]2[C@H](O)[C@@H](O[C@H]3O[C@H](CO)[C@@H](O)[C@H](N)[C@H]3O)[C@H](N)C[C@@H]2N)[C@H](O)[C@@H](O)[C@@H]1O [KANAMYCIN] 7.8
